- assay system: purified wild type MGL (wt-MGLL 6H-11-313) (Homo sapiens, UniProt Q99685)
- Sequence (Q99685 1-303): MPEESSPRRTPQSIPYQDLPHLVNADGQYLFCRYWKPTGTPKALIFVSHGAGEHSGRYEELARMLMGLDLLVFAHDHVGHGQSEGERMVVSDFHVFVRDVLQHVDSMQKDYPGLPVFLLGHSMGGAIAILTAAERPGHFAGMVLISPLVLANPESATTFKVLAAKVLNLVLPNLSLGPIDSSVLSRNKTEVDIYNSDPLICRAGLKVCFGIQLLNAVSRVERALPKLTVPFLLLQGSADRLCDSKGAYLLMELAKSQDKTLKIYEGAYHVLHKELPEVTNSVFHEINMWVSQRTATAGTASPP
experimental endpoint: IC50 (nM)
Just the number please, in nM, no unit attached.

Below, 3 molecules whose answers are already recorded.
>  <smiles data>
O=C(c1cccc(-c2ccc(F)cc2F)c1)N1CC(N2CCN(C(=O)c3cscn3)CC2)C1

>  <unit label>
nM

>  <assay result>
449

$$$$
>  <smiles data>
O=C(c1ccc2c(c1)[nH]c(=O)n2CCC(F)(F)F)N1CC(N2CCN(C(=O)c3cscn3)CC2)C1

>  <unit label>
nM

>  <assay result>
7320

$$$$
>  <smiles data>
CCCCCCCCCCCCCCCC(=O)N1CC(N2CCN(C(=O)c3nccs3)CC2)C1

>  <unit label>
nM

>  <assay result>
21

$$$$

Please look at the following molecule next.
Input: Tell me reported IC50 for O=C(c1ccc2c(ccn2-c2cccnc2)c1)N1CC(N2CCN(C(=O)c3nccs3)CC2)C1 , tested with purified wild type MGL (wt-MGLL 6H-11-313) (Homo sapiens, UniProt Q99685).
Output: 109

* * *

- assay system: mutant MGL (Homo sapiens, UniProt Q99685, L169S/L176S)
- assay procedure: MGL ThermoFluor assay - mutant
- Format: binding
- measurement setup: ThermoFluor concentration-response, read-out: MGL mutant ThermoFluor Kd
experimental endpoint: Kd (nM)
Just the number please, in nM, no unit attached.

Below, 5 molecules whose answers are already recorded.
>  <molecule>
O=C(c1ccccc1)N1CCN(C2CN(C(=O)c3ccc(NCc4ccc(F)c(C(F)(F)F)c4)cc3)C2)CC1

>  <unit label>
nM

>  <assay result>
100

$$$$
>  <molecule>
CCCCCCCCCCCCCCCCCCCC(=O)N1CC(N2CCN(C(=O)c3nccs3)CC2)C1

>  <unit label>
nM

>  <assay result>
25000

$$$$
>  <molecule>
Cc1cc(C(=O)N2CC(N3CCN(C(=O)c4ccccc4)CC3)C2)ccc1-c1ccccc1

>  <unit label>
nM

>  <assay result>
51

$$$$
>  <molecule>
O=C(c1ccccc1)N1CCN(C2CN(C(=O)c3ccc(CNc4ccc(F)c(F)c4F)cc3)C2)CC1

>  <unit label>
nM

>  <assay result>
114

$$$$
>  <molecule>
O=C(c1nccs1)N1CCN(C2CN(C(=O)c3sc4cc(Cl)ccc4c3C(F)(F)F)C2)CC1

>  <unit label>
nM

>  <assay result>
6

$$$$

Input: Tell me reported Kd for O=C(c1ccc2c(c1)CCN2C(=O)c1ccccc1)N1CC(N2CCN(C(=O)c3nccs3)CC2)C1 , tested with mutant MGL (Homo sapiens, UniProt Q99685, L169S/L176S).
Output: 50

Input: Tell me reported Kd for O=C(c1cc(F)cc(-c2ccccc2)c1)N1CC(N2CCN(C(=O)c3nccs3)CC2)C1 , tested with mutant MGL (Homo sapiens, UniProt Q99685, L169S/L176S).
Output: 199

Input: Tell me reported Kd for O=C(c1ccc2c(-c3ccc(F)cc3)c[nH]c2c1)N1CC(N2CCN(C(=O)c3nccs3)CC2)C1 , tested with mutant MGL (Homo sapiens, UniProt Q99685, L169S/L176S).
Output: 2

* * *

- assay system: purified wild type MGL (wt-MGLL 6H-11-313) (Homo sapiens)
- Sequence (Q99685 1-303): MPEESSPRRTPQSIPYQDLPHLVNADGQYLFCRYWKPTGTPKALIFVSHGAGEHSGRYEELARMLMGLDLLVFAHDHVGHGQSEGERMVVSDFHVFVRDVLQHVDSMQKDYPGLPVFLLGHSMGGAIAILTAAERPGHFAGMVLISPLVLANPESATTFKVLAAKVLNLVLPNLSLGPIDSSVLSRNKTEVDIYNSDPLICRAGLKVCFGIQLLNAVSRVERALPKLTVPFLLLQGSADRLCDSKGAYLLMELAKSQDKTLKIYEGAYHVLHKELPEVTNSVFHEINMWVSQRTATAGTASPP
experimental endpoint: IC50 (nM)
Just the number please, in nM, no unit attached.

>  <smiles data>
O=C(c1ccc(N2CCCC2)cc1)N1CC(N2CCN(C(=O)c3nccs3)CC2)C1

>  <unit label>
nM

>  <IC50>
15

$$$$
>  <smiles data>
O=C(c1nccs1)N1CCN(C2CN(C(=O)c3ccccc3NCc3ccccc3)C2)CC1

>  <unit label>
nM

>  <IC50>
862

$$$$
>  <smiles data>
O=C(c1cc(-c2cccc(F)c2)cs1)N1CC(N2CCN(C(=O)c3nccs3)CC2)C1

>  <unit label>
nM

>  <IC50>
45

$$$$
>  <smiles data>
O=C(c1nccs1)N1CCN(C2CN(C(=O)c3cn(Cc4ccccc4)c4ccccc34)C2)CC1

>  <unit label>
nM

>  <IC50>
1510

$$$$

Input: May I ask what IC50 has been recorded for Cc1nc(-c2ccc(Cl)cc2)sc1C(=O)N1CC(N2CCN(C(=O)c3nccs3)CC2)C1 ?
Output: 9

Input: May I ask what IC50 has been recorded for O=C(c1ccccc1)N1CCN(C2CN(C(=O)c3ccc4c(ccn4-c4ccc(C(F)(F)F)cn4)c3)C2)CC1 ?
Output: 112

Input: May I ask what IC50 has been recorded for O=C(c1ccccc1)N1CCN(C2CN(C(=O)c3ccc(Oc4cccc(C(F)(F)F)c4)cc3)C2)CC1 ?
Output: 170

Input: May I ask what IC50 has been recorded for Cc1cc(C(=O)N2CC(N3CCN(C(=O)c4nccs4)CC3)C2)sc1-c1cccc(F)c1 ?
Output: 7

Input: May I ask what IC50 has been recorded for Cn1cc(-c2ccccc2)c2ccc(C(=O)N3CC(N4CCN(C(=O)c5nccs5)CC4)C3)cc21 ?
Output: 23

Input: May I ask what IC50 has been recorded for O=C(c1ccc(-c2ccccc2)cc1)N1CC(N2CCN(C(=O)c3c[nH]nn3)CC2)C1 ?
Output: 1260

Input: May I ask what IC50 has been recorded for Cc1c(C(=O)N2CC(N3CCN(C(=O)c4cscn4)CC3)C2)sc2ccc(-c3ccccc3)cc12 ?
Output: 6

Input: May I ask what IC50 has been recorded for O=C(c1nccs1)N1CC(N2CCN(C(=O)c3[nH]c4nc(C(F)(F)F)ccc4c3Br)CC2)C1 ?
Output: 373

Input: May I ask what IC50 has been recorded for O=C(c1ccc(S(=O)(=O)c2ccccc2)cc1)N1CC(N2CCN(C(=O)c3cscn3)CC2)C1 ?
Output: 2860

Input: May I ask what IC50 has been recorded for O=C(c1ccc(Oc2cc(C(F)(F)F)ccn2)cc1)N1CC(N2CCN(C(=O)C(F)(F)F)CC2)C1 ?
Output: 5040

Input: May I ask what IC50 has been recorded for O=C(c1ccc2c(c1)ncn2C1CCC(F)(F)CC1)N1CC(N2CCN(C(=O)c3nccs3)CC2)C1 ?
Output: 579

Input: May I ask what IC50 has been recorded for O=C(c1ccc2c(ccn2-c2ccncc2)c1)N1CC(N2CCN(C(=O)c3nccs3)CC2)C1 ?
Output: 20

Input: May I ask what IC50 has been recorded for O=C(c1ccccc1)N1CCN(C2CN(C(=O)c3ccc4nc(-c5cccc(F)c5)sc4c3)C2)CC1 ?
Output: 1030

* * *

// reported Kd for each item listed
- assay system: mutant MGL (Homo sapiens, UniProt Q99685, L169S/L176S)
- assay procedure: MGL ThermoFluor assay - mutant
- Format: binding
- measurement setup: ThermoFluor concentration-response, read-out: MGL mutant ThermoFluor Kd
Just the number please, in µM, no unit attached.

Below, 3 compounds whose answers are already recorded.
>  <compound>
O=C(c1cscn1)N1CCN(C2CN(C(=O)c3sc4cc(C(F)(F)F)ccc4c3F)C2)CC1

>  <assay result>
0.011

$$$$
>  <compound>
O=C(c1ccccc1)N1CCN(C2CN(C(=O)C3CCC(c4ccc(Cl)cc4)CC3)C2)CC1 (stereo not shown)

>  <assay result>
0.254

$$$$
>  <compound>
O=C(c1cscn1)N1CCN(C2CN(C(=O)c3cc4ccn(-c5ccc(F)cc5)c4cc3F)C2)CC1

>  <assay result>
0.028

$$$$

Input: Tell me reported Kd for O=C(c1ccc(-c2ccccc2)cc1)N1CC(N2CCN(C(=O)c3ccccc3)C(CO)C2)C1 (stereo not shown) , tested with mutant MGL (Homo sapiens, UniProt Q99685, L169S/L176S).
Output: 9.1
